# system_under_test: Cytochrome P450 2C19 (Homo sapiens) (UniProt P33261)
# Sequence (P33261 whole entry, looked up): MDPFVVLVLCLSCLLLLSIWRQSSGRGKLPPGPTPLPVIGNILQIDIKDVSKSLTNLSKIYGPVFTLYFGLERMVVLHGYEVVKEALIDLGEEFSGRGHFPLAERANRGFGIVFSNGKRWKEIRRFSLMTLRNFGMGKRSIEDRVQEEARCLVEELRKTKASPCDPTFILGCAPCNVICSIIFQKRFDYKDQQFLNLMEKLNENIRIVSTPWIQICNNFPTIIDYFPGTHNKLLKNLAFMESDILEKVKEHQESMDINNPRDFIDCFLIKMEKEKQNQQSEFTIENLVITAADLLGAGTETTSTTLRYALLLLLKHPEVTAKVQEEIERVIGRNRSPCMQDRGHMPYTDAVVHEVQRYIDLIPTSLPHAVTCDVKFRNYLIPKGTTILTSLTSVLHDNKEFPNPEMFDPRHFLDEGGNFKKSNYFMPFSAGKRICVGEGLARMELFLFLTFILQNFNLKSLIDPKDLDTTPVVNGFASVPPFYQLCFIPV
# assay_notes: Cytochrome panel assay with activity outcomes
# experimental_setup: recombinant CYP, pro-luciferin dealkylation, luminescence, p450-cyp2c19; series mostly up to 57.1 µM
# Method: The P450 gene superfamily is involved in the metabolism and clearance of xenobiotics. This assay used various human CYP P450 isozymes to measure the dealkylation of various pro-luciferin substrates to luciferin. The luciferin is then measured by luminescence after the addition of a luciferase detection reagent. […] Inhibitors and some substrates limit the production of luciferin, and decrease measured luminescence. […] 8, Detection, 1 sec, ViewLux luminescent read […]
Screen size: about 16,000 compounds; about 5,800 (36%) were called active. About 23% were inconclusive and are not listed. Calls come from the whole dose curve; as a rule, active = well fitted curve in the direction sought with a large enough effect; inconclusive = small, poorly fitted or top-dose-only effect, or effect the other way; inactive = no such curve, though single readings can be large or run the other way. Some of the results follow.
Possible outcomes: active, inactive

CN(C)c1ccc(-c2cncnc2NCc2ccccc2)cc1; active
Cc1cc(=O)oc(C)c1C(=O)NCCCN1CCN(c2ccc(F)cc2)CC1; inactive
O=C(CCCN1CC=C(n2c(=O)[nH]c3ccccc32)CC1)c1ccc(F)cc1; inactive
O=C(NCCCn1ccnc1)Nc1ccc(Cl)cc1; active
CNc1ncncc1-c1ccc(C(=O)N(C)C)cc1; active
CCOC(=O)CSc1nnc(CSc2nc3sc4c(c3c(=O)[nH]2)CCCC4)n1-c1ccccc1; active
CSc1ccc(NC(=O)NCCCN2CCN(c3ccccc3F)CC2)cc1; active
O=C(NCCCN1CCN(C2CCCCC2)CC1)Nc1ccccc1C(F)(F)F; inactive
COC(=O)C1=C(C)N=C2SC(C)C(=O)N2C1/C=C/c1ccccc1 (stereo unspecified); active
O=C(CCN1CCc2ccccc2C1)Nc1ccc(F)cc1; active
CCC(C)NC(=O)c1ccccc1NC(=O)Nc1ccccc1 (stereo unspecified); active

###

# system_under_test: Cytochrome P450 2C19 (Homo sapiens) (UniProt P33261)
# assay_notes: Cytochrome panel assay with activity outcomes
# experimental_setup: recombinant CYP, pro-luciferin dealkylation, luminescence, p450-cyp2c19; series mostly up to 57.1 µM
Out of some 16,000 compounds screened, about 5,800 (36%) were called active. Roughly 23% stayed inconclusive and do not appear here. Calls follow the shape of the dose curve; as a rule, active = well fitted curve in the direction sought with a large enough effect; inconclusive = small, poorly fitted or top-dose-only effect, or effect the other way; inactive = no such curve, though single readings can be large or run the other way. Some of the results follow.
Possible outcomes: active, inactive

COc1ccc2[nH]cc(CCNc3ccnc(-c4ccccc4C(F)(F)F)n3)c2c1; active
CC(Cc1ccccc1)C(=O)NCc1ccccn1 (configuration not stated); inactive
COc1ccc(C(=O)COC(=O)c2ccc(NC(=O)c3ccccc3)cc2)cc1; inactive
CC[N+](CC)(CC)CC[C@](O)(c1ccccc1)C1CCCCC1; inactive
CN1CC[C@@]2(CCCN(C(=O)c3cccc(F)c3)C2)C1; inactive
O=C(CN1CCN(Cc2ccccc2)CC1)N1CCCc2c1c(=O)oc1ccc(O)cc21; active
COc1cccc(/C=N/NC(=O)c2cc(-c3cccn3C)n[nH]2)c1; active
O=C(/C=C/c1ccc2ccccc2c1)c1ccoc1; active
Cc1cccc(CNc2cc(-c3ccc(N(C)C)cc3)ncn2)c1; active
Cc1ccccc1C(C(=O)NCc1ccccc1)N(Cc1ccco1)C(=O)c1ccccn1 (configuration not stated); active
Cc1cccc(CNc2cc(-c3cccc(C#N)c3)ncn2)c1; active
COc1ccc(C(=O)Nc2ccc(C(=O)OCC(=O)c3ccccc3)cc2)cc1; inactive
CC(=O)NCCNc1ncncc1-c1ccccc1C; inactive
CNC(=O)Oc1ccc2c(c1)[C@@]1(C)CCN(C)[C@@H]1N2C; inactive
CC(C)NC(=O)N1CCCC2(CCN(C(=O)c3cccn3C)CC2)C1; inactive
COc1ccc(-c2nc3cnc(N4CCN(C)CC4)nc3n(C)c2=O)cc1; inactive
O=C(O)[C@@H](O)[C@@H](O)[C@@H](O)[C@@H](O)c1nc2ccccc2s1; active
Cc1cccc(CNc2ccnc(-c3cccc(C#N)c3)n2)c1; active
O=C(O)[C@@H](O)[C@@H](O)[C@@H](O)[C@@H](O)C(=O)O (tested in a mixture with another compound); inactive
COc1cccc(/C=N/NC(=O)c2c(-c3ccccc3)noc2C)c1; active
O=C(NCc1ccccc1)C(c1ccc(F)cc1)N(Cc1ccco1)C(=O)c1ccccn1 (configuration not stated); active
N#Cc1ccccc1-c1cncnc1NCc1cccnc1; inactive
